Source listed as patent US20230303690A1.

# Test target: T1, LAG3 Protein, Human, Recombinant (His Tag) (Sino Biological Catalog No. 16498-H08H) (human, UniProt P18627 23-450)
# T1 construct: Bought protein; also called hLAG3-His; LAG3-His; not shown: His tag
# T1 sequence (looked up): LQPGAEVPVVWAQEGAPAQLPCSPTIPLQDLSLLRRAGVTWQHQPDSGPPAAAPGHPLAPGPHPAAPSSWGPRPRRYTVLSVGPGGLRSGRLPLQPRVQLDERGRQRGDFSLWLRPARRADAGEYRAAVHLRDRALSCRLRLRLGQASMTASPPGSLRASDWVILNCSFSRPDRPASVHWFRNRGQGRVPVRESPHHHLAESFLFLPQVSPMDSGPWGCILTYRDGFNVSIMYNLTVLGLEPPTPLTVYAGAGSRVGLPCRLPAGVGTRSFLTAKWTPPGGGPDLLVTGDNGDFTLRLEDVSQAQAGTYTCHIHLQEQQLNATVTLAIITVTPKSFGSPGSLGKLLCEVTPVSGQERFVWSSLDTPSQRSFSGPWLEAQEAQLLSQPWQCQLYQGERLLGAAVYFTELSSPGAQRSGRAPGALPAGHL
# Assay comment: ELISA, coated hLAG3-His
Would you mind telling me the reported OD450 at 4.9383 nM of each entry?
Field format: numeric only.

Please report the recorded OD450 at 4.9383 nM for sdAb No. 25-B6 (VHH, Humanized sdAb No. 25; not shown: Fc part implied by anti-human IgG1 Fc detection) VHH: QLQLVESGGGLVKPGGSLRLSCAASGSIESFSFMGWYRQAPGKQREWVAGFTGAASLSFSTYTDAVKGRFTISRDNAKNSVYLQMNSLRAEDTAVYYCNVDPWSQSWPGRYWGQGTTVTVSS .
0.053

Could you do the same for sdAb No. 25-B5 (VHH, Humanized sdAb No. 25; not shown: Fc part implied by anti-human IgG1 Fc detection) VHH: QVQLVESGGGLVKPGGSLRLSCAASGSIESFSFMGWYRQAPGKQREWVAGFTGAASLSFSTYTDAVKGRFTISRDNAKNSLYLQMNSLRAEDTAVYYCNVDPWSQSWPGRYWGQGTTVTVSS , please?
0.062

Could you do the same for sdAb No. 27 (VHH, Fc of the tested form not described; also called sdAb 27; not shown: Fc part implied by anti-human Fc capture and anti-human IgG Fc detection) VHH: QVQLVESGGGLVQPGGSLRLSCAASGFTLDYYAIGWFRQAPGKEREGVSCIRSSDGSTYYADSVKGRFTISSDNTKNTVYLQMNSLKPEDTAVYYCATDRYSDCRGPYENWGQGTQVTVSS , please?
1.04

Could you do the same for sdAb No. 25 (VHH, Fc of the tested form not described; also called sdAb 25; sdAb #25; not shown: Fc part implied by anti-human Fc capture and anti-human IgG Fc detection) VHH: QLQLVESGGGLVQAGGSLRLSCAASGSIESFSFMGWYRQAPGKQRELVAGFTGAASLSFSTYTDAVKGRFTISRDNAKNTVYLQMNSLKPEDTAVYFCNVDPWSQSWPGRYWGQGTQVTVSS , please?
0.643

Could you do the same for sdAb No. 25-B7 (VHH, Humanized sdAb No. 25; not shown: Fc part implied by anti-human IgG Fc detection) VHH: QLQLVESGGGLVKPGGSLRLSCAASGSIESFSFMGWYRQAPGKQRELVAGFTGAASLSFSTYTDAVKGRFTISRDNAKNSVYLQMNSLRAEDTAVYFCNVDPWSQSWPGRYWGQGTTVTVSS , please?
1.25

Could you do the same for sdAb No. 27-H1B3 (VHH, Humanized sdAb No. 27-H1; not shown: Fc part implied by anti-human IgG Fc detection) VHH: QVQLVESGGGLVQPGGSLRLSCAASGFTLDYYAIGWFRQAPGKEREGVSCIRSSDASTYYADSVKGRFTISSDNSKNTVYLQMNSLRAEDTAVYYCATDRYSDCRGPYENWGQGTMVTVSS , please?
2.53
